# target of assay: Luciferin 4-monooxygenase (Photinus pyralis)
# method notes: Biochemical firefly luciferase enzyme assay for NPC (AID 624030);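 note: purified P. pyralis luciferase at 10 nM with luciferin and ATP substrate; 0% = DMSO and -100% = full luciferase inhibition by PTC124 control; nearly all actives have a fitted effect of over 70% in size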
# settings: purified P. pyralis luciferase, luminescence, 5 min; series mostly up to 58.6 µM
# Procedure: Charcot-Marie-Tooth-Association [CMTA] National Center for Advancing Translational Sciences [NCATS] […] Compounds were transferred to the plates in 23nl, and one microliter/well luciferase enzyme-buffer solution (10 nM P. pyralis luciferase and 50 mM Tris Acetate final concentrations) was dispensed yielding a final reaction volume of […]. Luciferase luminescence was measured by a ViewLux plate reader within 5 minutes of enzyme-buffer addition. […]
Results filed as inconclusive are left out. The source made the active and inactive calls. Calls come from the whole dose curve; as a rule, active = well fitted inhibition curve with a large enough effect; inconclusive = small, poorly fitted or top-dose-only effect; inactive = flat fitted curve, though single readings scatter.
endpoint: outcome

# example entries with known answers
Ask | Item CCCCCCCCCCCCCCCCOP(=O)([O-])OCC[N+](C)(C)C has what recorded outcome?
Reply | inactive

Ask | Item C1CCc2nnnn2CC1 has what recorded outcome?
Reply | inactive

Ask | Item CC(=O)OCC(=O)[C@@]1(OC(C)=O)[C@@H](C)C[C@H]2[C@@H]3C[C@H](F)C4=CC(=O)C=C[C@]4(C)[C@@]3(F)[C@@H](O)C[C@@]21C has what recorded outcome?
Reply | inactive

Ask | Item CC(C)=CCC1C(=O)N(c2ccccc2)N(c2ccccc2)C1=O has what recorded outcome?
Reply | inactive

Ask | Item CCN(CC)C(=O)N1CCN(C)CC1 has what recorded outcome?
Reply | inactive

Ask | Item Cc1cc(N)c2cc(NC(=O)Nc3ccc4nc(C)cc(N)c4c3)ccc2n1 has what recorded outcome?
Reply | inactive

Ask | Item CC(C)(CO)[C@@H](O)C(=O)NCCCO has what recorded outcome?
Reply | inactive

Ask | Item Cc1ccnc(NS(=O)(=O)c2ccc(N)cc2)n1 has what recorded outcome?
Reply | inactive

Continuing:
Ask | Item Cc1c(F)c(N2CCNC(C)C2)cc2c1c(=O)c(C(=O)O)cn2C1CC1 (stereo unspecified) has what recorded outcome?
Reply | inactive

Ask | Item CCCOC(C(=O)OC1CCN(C)CC1)(c1ccccc1)c1ccccc1 has what recorded outcome?
Reply | inactive

Ask | Item CC(=O)OCC(=O)NCCCOc1cccc(CN2CCCCC2)c1 has what recorded outcome?
Reply | inactive

---

# System: CP237
# method notes: qHTS profiling for inhibitors of Plasmodium falciparum proliferation (AID 504749); note: nearly all actives have a fitted effect of over 60% in size
# settings: P. falciparum in erythrocytes, SYBR Green DNA, 72 h; series mostly up to 28.7 µM
Results filed as inconclusive are left out. Activity calls are given as the source filed them. Calls follow the shape of the dose curve; as a rule, active = well fitted inhibition curve with a large enough effect; inconclusive = small, poorly fitted or top-dose-only effect; inactive = flat fitted curve, though single readings scatter.
Parameter call: string, one of 1.0 = active, 0.0 = inactive

Ask | So what was the verdict on CN(C)/N=N/c1nc[nH]c1C(N)=O in this test?
Reply | 0.0

Ask | So what was the verdict on CCOc1ccc(NC(=O)CC(C)O)cc1 (stereo unspecified) in this test?
Reply | 0.0

Ask | So what was the verdict on Cc1c(C)n(CCN(C)C)c2ccc(C(=O)OCCN(C)C)cc12 in this test?
Reply | 1.0

Ask | So what was the verdict on COc1cc(NS(C)(=O)=O)ccc1Nc1c2ccccc2nc2ccccc12 in this test?
Reply | 1.0

Continuing:
Ask | So what was the verdict on CN1C(CCl)Nc2cc(Cl)c(S(N)(=O)=O)cc2S1(=O)=O (stereo unspecified) in this test?
Reply | 0.0

Ask | So what was the verdict on c1ccc(OCc2ccc(CCCN3CCOCC3)cc2)cc1 in this test?
Reply | 0.0

Ask | So what was the verdict on C[C@H]1[C@H](NC(=O)/C(=N/OC(C)(C)C(=O)O)c2csc(N)n2)C(=O)N1S(=O)(=O)O (stereo in doubt) in this test?
Reply | 0.0

Ask | So what was the verdict on Cc1c(C(C)C)c(=O)n(-c2ccccc2)n1C in this test?
Reply | 0.0

---

# method notes: qHTS of pediatric cancer cell lines to identify multiple opportunities for drug repurposing: Primary screen for DAOY cells (AID 1347090); note: nearly all actives have a fitted effect of over 55% in size
# settings: DAOY medulloblastoma viability, CellTiter-Glo luminescence, 48 h; series mostly up to 46 µM
Records with an inconclusive call do not appear. Activity calls are given as the source filed them. The call rests on the fitted dose curve; in most records, active means well fitted cell-killing curve with a large enough effect; inconclusive means small, poorly fitted or top-dose-only effect; inactive means flat fitted curve, though single readings scatter.
Parameter call: string, one of 1 = active, -1 = inactive

Completed entries (count: 4):
Ask | So what was the verdict on COCc1c(C(C)C)nc(C(C)C)c(/C=C/[C@@H](O)C[C@@H](O)CC(=O)O)c1-c1ccc(F)cc1 in this test?
Reply | 1

Ask | So what was the verdict on OCc1ccccc1O in this test?
Reply | -1

Ask | So what was the verdict on Cc1ccc(C(=O)C(C)CN2CCCCC2)cc1 (stereo not given) in this test?
Reply | -1

Ask | So what was the verdict on CCCCCCCCCCCCCCNCCO in this test?
Reply | -1

Let us examine a further case.
Ask | So what was the verdict on NC[C@H]1O[C@H](O[C@H]2[C@H](O)[C@@H](O[C@H]3O[C@H](CO)[C@@H](O)[C@H](N)[C@H]3O)[C@H](N)C[C@@H]2N)[C@H](N)[C@@H](O)[C@@H]1O in this test?
Reply | -1

---

# Test system: HaCat
# method notes: Cytotoxic Profiling of Annotated Libraries Using Quantitative High-Throughput Screening (AID 1296008); note: nearly all actives have a fitted effect of over 60% in size
# settings: Five cell lines viability, CellTiter-Glo ATP luminescence, 48-72 h
Inconclusive results are not listed. The source made the active and inactive calls. Calls come from the whole dose curve; as a rule, active = well fitted inhibition curve with a large enough effect; inconclusive = small, poorly fitted or top-dose-only effect; inactive = flat fitted curve, though single readings scatter.
Parameter call: string, one of YES (active), NO (inactive)

Completed entries (count: 5):
Ask | So what was the verdict on COC1=CC(=O)C[C@@H](C)[C@]12Oc1c(Cl)c(OC)cc(OC)c1C2=O in this test?
Reply | YES

Ask | So what was the verdict on COc1cccc2c1C(=O)c1c(O)c3c(c(O)c1C2=O)C[C@@](O)(C(=O)CO)C[C@@H]3O[C@H]1C[C@H](N)[C@H](O)[C@H](C)O1 in this test?
Reply | YES

Ask | So what was the verdict on OC[C@H]1O[C@@H](n2cnc3c(=S)nc[nH]c32)[C@H](O)[C@@H]1O in this test?
Reply | YES

Ask | So what was the verdict on CCCCOc1ccc(C(=O)CCN2CCCCC2)cc1 in this test?
Reply | NO

Ask | So what was the verdict on Oc1ccc(O)cc1 in this test?
Reply | NO

Continuing:
Ask | So what was the verdict on CC(C)(C)NC(=O)[C@@H]1CN(Cc2cccnc2)CCN1C[C@@H](O)C[C@@H](Cc1ccccc1)C(=O)N[C@H]1c2ccccc2C[C@H]1O in this test?
Reply | NO

Ask | So what was the verdict on CCCCCCCCCCCCCCCC[N+](C)(C)CC in this test?
Reply | YES

Ask | So what was the verdict on Cc1c(N(C)CS(=O)(=O)O)c(=O)n(-c2ccccc2)n1C in this test?
Reply | NO

Ask | So what was the verdict on CN=C(NC#N)Nc1ccc(C2=NNC(=O)CC2C)cc1 (stereo not given) in this test?
Reply | NO

Ask | So what was the verdict on Cc1c(C)n(CCN(C)C)c2ccc(C(=O)OCCN(C)C)cc12 in this test?
Reply | NO

---

# method notes: Drug repurposing screens with cells derived from glioblastoma tumor samples (AID 1345199); note: potency is the fitted concentration of half-maximal effect; nearly all actives have a fitted effect of over 40% in size
# settings: GBM patient neurospheres viability, ATP luminescence, 48 h; tumour line B
# Method: CD133+ cells were isolated from GBM patient biopsies and cultured as neurospheres. Neurospheres from four patients were used to screen the NCATS pharmaceutical collection (NPC) library of approved drugs and bioactive compounds. […] The neurospheres were incubated with drugs for 48 hours in 1536-well format, then assayed with an ATP content cell viability assay. […]
Inconclusive results are not listed. Calls of active or inactive are those of the source. The call rests on the fitted dose curve; in most records, active means well fitted inhibition curve with a large enough effect; inconclusive means small, poorly fitted or top-dose-only effect; inactive means flat fitted curve, though single readings scatter.
endpoint: Potency

# example entries with known answers
Ask | Item CN1CCCC(CC2c3ccccc3Sc3ccccc32)C1 (stereo not given) has what recorded Potency?
Reply | 12.6 µM (active)

Ask | Item C#C[C@]1(O)CC[C@H]2[C@@H]3CCc4cc(OC5CCCC5)ccc4[C@H]3CC[C@@]21C has what recorded Potency?
Reply | 10 µM (active)

Continuing:
Ask | Item CCCCCCCCCCCCCCCC[N+](C)(C)CCN(Cc1ccc(OC)cc1)c1ncccn1 has what recorded Potency?
Reply | 14.1 µM (active)

Ask | Item O=C(N/N=C/c1ccccc1O)c1ccncc1 has what recorded Potency?
Reply | 17.8 µM (active)

Ask | Item Clc1ccc2c(c1)CCc1cccnc1C2=C1CCNCC1 has what recorded Potency?
Reply | 12.6 µM (active)

---

# Test system: CP247
# method notes: qHTS profiling for inhibitors of Plasmodium falciparum proliferation (AID 504749); note: nearly all actives have a fitted effect of over 60% in size
# settings: P. falciparum in erythrocytes, SYBR Green DNA, 72 h; series mostly up to 28.7 µM
Records with an inconclusive call do not appear. The source made the active and inactive calls. Calls come from the whole dose curve; as a rule, active = well fitted inhibition curve with a large enough effect; inconclusive = small, poorly fitted or top-dose-only effect; inactive = flat fitted curve, though single readings scatter.
Parameter call: string, one of t for active, f for inactive

Completed entries (count: 4):
Ask | So what was the verdict on Cc1c(F)c(N2CCNC(C)C2)cc2c1c(=O)c(C(=O)O)cn2C1CC1 (stereo not drawn) in this test?
Reply | f

Ask | So what was the verdict on Oc1c(Cl)cc(Cl)cc1Sc1cc(Cl)cc(Cl)c1O in this test?
Reply | f

Ask | So what was the verdict on CCN(CC)C(=O)N1CCN(C)CC1 in this test?
Reply | f

Ask | So what was the verdict on Cc1c(C(C)C)c(=O)n(-c2ccccc2)n1C in this test?
Reply | f

Continuing:
Ask | So what was the verdict on CCCN1CCCC[C@H]1C(=O)Nc1c(C)cccc1C in this test?
Reply | f
